These entries and their values trace back to patent US20120035214A1.

biological target: Human recombinant renin (Homo sapiens); experiment: Inhibition of human recombinant renin (QFRET, buffer); settings: buffer: 50 mM MOPS pH 7.4, 100 mM NaCl, 0.002% Tween 20; 37° C., 3 hours
Sequence (P00797 67-406): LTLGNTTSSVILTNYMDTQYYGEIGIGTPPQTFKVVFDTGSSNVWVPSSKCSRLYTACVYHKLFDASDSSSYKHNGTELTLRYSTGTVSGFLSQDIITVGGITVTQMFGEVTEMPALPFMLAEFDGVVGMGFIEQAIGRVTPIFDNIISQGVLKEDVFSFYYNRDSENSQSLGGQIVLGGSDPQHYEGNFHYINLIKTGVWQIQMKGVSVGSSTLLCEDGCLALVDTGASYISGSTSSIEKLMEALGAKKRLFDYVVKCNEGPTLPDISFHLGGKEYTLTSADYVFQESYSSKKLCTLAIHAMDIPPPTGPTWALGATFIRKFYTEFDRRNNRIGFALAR
Measurement label: IC50 (nM)

The cases that follow already have their IC50 on record.
Cc1cc(-c2ccccc2CCNC(=O)C(F)(F)F)ccc1[C@H]1CNCC[C@@H]1c1cc(F)cc(F)c1 (racemic); 0.57
COC[C@H](C)COCc1ccc([C@@]2(O)CCNC[C@@H]2c2ccc(-c3ccccc3CCNC(=O)OC)cc2C)cc1; 0.03
O[C@]1(c2ccc(F)c(F)c2)CCNC[C@@H]1c1onc(-c2c(Cl)cccc2Cl)c1Br; 3.7

A: CC(=O)NCCc1ccccc1-c1onc([C@H]2CNCC[C@]2(O)c2ccc(F)c(F)c2)c1C(C)=O
B: COCc1ccc2cccc(-c3ccc([C@H]4CNCC[C@@H]4c4cc(F)cc(F)c4)c(C)c3)c2c1 (racemic)
C: CC(=O)NCCc1ccccc1-c1onc([C@H]2CNCC[C@]2(O)c2ccc(COCC(F)(F)COC(C)C)cc2)c1Br
D: CC(=O)NCCc1ccccc1-c1ccc([C@H]2CNCC[C@]2(O)c2ccc(COCCOC(C)C)cc2)c(C)c1 (racemic)
Data request: Sort by IC50, descending. Return the labels ranked in the requested order, please.
Data returned: B, A, C, D
(B: 100 nM, A: 2.8 nM, C: 0.44 nM, D: 0.26 nM)
